- protocol_summary: NCI Yeast Anticancer Drug Screen. Data for the sgs1 mgt1 strain (AID 161);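 further: 0% = growth of cultures given vehicle only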
- test_parameters: S. cerevisiae sgs1 mgt1 strain, at 5.0 µM (retest, dose inferred, filed as 0.5), stronger effect = higher value
Compounds without any hit were thinned out: in the full panel of roughly 79,000, 15% have a hit. Calls of active or inactive are those of the source. No stated cut-off is given here; in the data, active means growth inhibition above about 70%; inactive means the rest.
Give measured growth inhibition for each item. Keep answers brief.

A selection of reference data follows.
{"columns": ["compound", "growth inhibition"],
 "data": [
  ["CC(C(O)c1ccccc1)C(O)(C(F)(F)F)C(F)(F)F (stereo not drawn)", "3% (inactive)"],
  ["Cn1cnc([N+](=O)[O-])c1Sc1nc2cccnc2s1", "40% (inactive)"],
  ["CN(C)c1nc(=Nc2ccc(N=c3nc(N(C)C)ss3)cc2)ss1", "28% (inactive)"]
]}

Give measured growth inhibition for every item shown.
1. Nc1nc(N)c2nc(CNc3ccc(C(=O)NC(CCC(=O)O)C(=O)O)cc3)cnc2n1 (stereo not drawn)
2. CCNCCNc1cc(O)c2c(c1O)C(=O)c1ccccc1C2=O
3. Cc1ccc(NC(=O)c2cc3ccccc3c(N=Nc3cc(S(=O)(=O)O)ccc3O)c2O)c(C)c1
4. CC12CCCC1C1CC=C3CC(OC=O)CCC3(C)C1CC2 (stereo not drawn)
5. C[N+](C)=c1ccc2nc3c(cc(NCCCNc4cc5oc6cc(=[N+](C)C)ccc-6nc5c5ccccc45)c4ccccc43)oc-2c1
6. CN(C)c1ccc(C(O)(Cc2cccc(C#N)c2)c2ccc(N(C)C)cc2)cc1
7. COc1ccc(C2=C(Cl)C(=O)N(c3ccc(OC)cc3OC)C(=O)C2(Cl)Cl)cc1

# output
1: -2% (inactive); 2: 78% (active); 3: 56% (inactive); 4: 0% (inactive); 5: -15% (inactive); 6: -4% (inactive); 7: 5% (inactive)

Give measured growth inhibition for every item shown.
1. O=C1c2ccc3ccccc3c2CN2C(=O)CCC12 (stereo not drawn)
2. CCCCCCCC/C=C\CCCCCCCCN1CCOCC1
3. CCCCN(CCCC)CCC(O)(c1ccc(OC)c2ccccc12)C(O)(CCN(CCCC)CCCC)c1ccc(OC)c2ccccc12 (stereo not drawn)

# output
1: -5% (inactive); 2: -4% (inactive); 3: 60% (inactive)

Cited source: PubChem BioAssay (NCI)
